# Test Target: T1, hGP130-his (Sino Biological, Catalog# 10974) (human, UniProt P40189 23-619)
# T1 construct: Bought reagent; also called extracellular domain of gp130; not shown: C-terminal poly-His tag
# T1 sequence: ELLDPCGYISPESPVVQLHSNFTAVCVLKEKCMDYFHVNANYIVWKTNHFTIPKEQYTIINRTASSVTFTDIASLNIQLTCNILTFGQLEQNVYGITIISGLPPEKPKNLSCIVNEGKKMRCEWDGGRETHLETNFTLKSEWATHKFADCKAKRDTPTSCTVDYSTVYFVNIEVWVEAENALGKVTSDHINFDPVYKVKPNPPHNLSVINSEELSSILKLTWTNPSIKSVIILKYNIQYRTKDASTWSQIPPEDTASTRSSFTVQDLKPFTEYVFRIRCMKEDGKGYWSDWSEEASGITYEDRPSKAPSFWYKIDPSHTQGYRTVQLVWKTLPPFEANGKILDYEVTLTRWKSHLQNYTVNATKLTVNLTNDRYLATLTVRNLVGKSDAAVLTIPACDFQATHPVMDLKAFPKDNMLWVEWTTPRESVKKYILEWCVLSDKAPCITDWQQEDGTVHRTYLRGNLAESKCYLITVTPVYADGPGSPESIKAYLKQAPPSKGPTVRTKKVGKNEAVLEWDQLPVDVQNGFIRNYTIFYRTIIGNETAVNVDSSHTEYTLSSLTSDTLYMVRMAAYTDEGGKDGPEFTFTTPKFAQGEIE
# Assay Info: SPR (Biacore T200), Mono-Fc VHH captured on Protein A chip, hGP130-his in solution, 1:1 fit
pKd: −log10 of the molar value.
Let's look at some binders and their measured pKd.
Measurement Type: pKd

Binder	Value Reported
DR596 Mono-Fc VHH (Fc fusion, Mono-Fc format is not described further; also called anti-hGP130 Mono-Fc VHH; not shown: Fc part of the Mono-Fc format) QVQLQESGGGLVQPGGSLRLSCTASGLTFDDSVMGWFRQAPGKGREAVSCISSSGANAFYADSVKGRFTISRDNAKNTLYLQMNSLKPEDTATYYCKRGHACAGYYPIPYDDYWGQGTQVTVSS	7.36
DR594 Mono-Fc VHH (Fc fusion, Mono-Fc format is not described further; also called anti-hGP130 Mono-Fc VHH; not shown: Fc part of the Mono-Fc format) QVQLQESGGGSVQAGGSLRLSCVASASTYCTYDMHWYRQAPGKGREFVSAIDSDGTTRYADSVKGRFTISQGTAKNTVYLQMNSLQPEDTAMYYCKTVCVVGSRWSDYWGQGTQVTVSS	7.24
DR592 Mono-Fc VHH (Fc fusion, Mono-Fc format is not described further; also called anti-hGP130 Mono-Fc VHH; not shown: Fc part of the Mono-Fc format) QVQLQESGGGSVQAGGSLRLSCTAPGFTSNSCGMDWYRQAPGKEREFVSSISTDGTTGYADSVKGRFTISKDKAKDTVYLQMNSLKPEDTGMYSCKTKDGTIATMELCDFGYWGQGTQVTVSS	7.42
DR593 Mono-Fc VHH (Fc fusion, Mono-Fc format is not described further; also called anti-hGP130 Mono-Fc VHH; not shown: Fc part of the Mono-Fc format) QVQLQESGGGSVQAGGSLRLSCAASGYPYSNGYMGWFRQAPGKEREGVATIYTGDGRTYYADSVKGRFTISRDNAKNTVDLQMSSLKPEDTAMYYCAARAAPLYSSGSPLTRARYNVWGQGTQVTVSS	7.09
DR591 Mono-Fc VHH (Fc fusion, Mono-Fc format is not described further; also called anti-hGP130 Mono-Fc VHH; not shown: Fc part of the Mono-Fc format) QVQLQESGGGSVQAGGSLRLSCTASGAIASGYIDSRWCMAWFRQAPGKEREGVAAIWPGGGLTVYADSVKGRFTISRDHAKNTLYLQMNNLKPEDTAMYYCAAGSPRMCPSLEFGFDYWGQGTQVTVSS	7.48
DR595 Mono-Fc VHH (Fc fusion, Mono-Fc format is not described further; also called anti-hGP130 Mono-Fc VHH; not shown: Fc part of the Mono-Fc format) QVQLQESGGGSVQAGGSLTLSCAASEYAYSTCNMGWYRQAPGKERELVSAFISDGSTYYADSVKGRFTITRDNAKNTVYLQMNSLKPEDTAIYYCSANCYRRLRNYWGQGTQVTVSS	7.39
